Biological target: human PHD2 (Homo sapiens, UniProt Q9GZT9)
Construct: made in house; host or cells: Sf9 insect cells (baculovirus, pVL1393 vector)
Sequence (Q9GZT9 whole entry): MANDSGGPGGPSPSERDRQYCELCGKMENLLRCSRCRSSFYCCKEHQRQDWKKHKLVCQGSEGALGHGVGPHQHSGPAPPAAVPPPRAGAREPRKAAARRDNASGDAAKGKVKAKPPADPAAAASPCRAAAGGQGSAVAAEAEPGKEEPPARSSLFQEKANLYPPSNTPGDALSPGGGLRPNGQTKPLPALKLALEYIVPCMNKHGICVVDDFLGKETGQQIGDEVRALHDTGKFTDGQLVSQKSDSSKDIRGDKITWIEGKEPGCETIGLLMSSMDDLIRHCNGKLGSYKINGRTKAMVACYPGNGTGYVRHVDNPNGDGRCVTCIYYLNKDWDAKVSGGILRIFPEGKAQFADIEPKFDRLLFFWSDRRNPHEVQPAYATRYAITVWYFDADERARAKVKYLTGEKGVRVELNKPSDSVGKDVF
Experiment: Measurement of human PHD inhibitory activity (TR-FRET, hydroxylation of HIF-1α partial peptide)
Type: biochemical
Conditions: human PHD2 enzyme 1 nM, 25° C. 30 min, values consisting solely of numbers; read-out: IC50 (μM) in vitro, human PHD inhibitory activity
Counter-ions that a name gives are not always drawn.
quantity: log10 IC50 (log10 of the value in µM)

>  <molecule>
O=C(O)CNC(=O)c1c(O)cc(CCc2ccc(C(F)(F)F)cc2)n2ncnc12 [Example 16, hydrochloride]

>  <recordedValue>
-0.49

$$$$
>  <molecule>
O=C(O)CNC(=O)c1c(O)cc(-c2ccc(Cl)cc2)n2ncnc12 [Example 50, hydrochloride]

>  <recordedValue>
-0.74

$$$$
>  <molecule>
O=C(O)CNC(=O)c1c(O)ccc2cnnn12

>  <recordedValue>
-0.54

$$$$
>  <molecule>
O=C(O)CNC(=O)c1c(O)cc(-c2cc(F)cc(C(F)(F)F)c2)c2ncnn12 [Example 104, acetic acid hydrochloride]

>  <recordedValue>
-0.72

$$$$
>  <molecule>
O=C(O)CNC(=O)c1c(O)cc(-c2cccc(C(F)(F)F)c2F)n2ncnc12 [Example 55, acetic acid hydrochloride]

>  <recordedValue>
-0.64

$$$$
>  <molecule>
O=C(O)CNC(=O)c1c(O)cc(CCc2ccc(Cl)cc2)n2ncnc12 [Example 14, hydrochloride]

>  <recordedValue>
-0.64

$$$$
>  <molecule>
O=C(O)CNC(=O)c1c(O)cc(-c2cc(Cl)cc(Cl)c2)n2ncnc12 [Example 46, hydrochloride]

>  <recordedValue>
-0.54

$$$$
>  <molecule>
O=C(O)CNC(=O)c1c(O)ccn2nc(-c3ccccc3)nc12 [Example 13, hydrochloride]

>  <recordedValue>
0.12

$$$$
>  <molecule>
O=C(O)CNC(=O)c1c(O)cc(-c2cc(F)cc(F)c2)c2ncnn12 [Example 85, acetic acid hydrochloride]

>  <recordedValue>
-0.80

$$$$
>  <molecule>
N#Cc1cccc(-c2cc(O)c(C(=O)NCC(=O)O)c3ncnn23)c1 [Example 37, hydrochloride]

>  <recordedValue>
-0.70

$$$$
>  <molecule>
CC(C)(NC(=O)c1c(O)cc(-c2cc(F)cc(F)c2)n2ncnc12)C(=O)O [Example 68, hydrochloride]

>  <recordedValue>
0.77

$$$$
>  <molecule>
O=C(O)CNC(=O)c1c(O)cc(-c2cc(Cl)cc(C(F)(F)F)c2)n2ncnc12 [Example 36, hydrochloride]

>  <recordedValue>
-0.14

$$$$
>  <molecule>
O=C(O)CNC(=O)c1c(O)cc(-c2ccc(C3CC3)cc2F)n2ncnc12 [Example 82, acetic acid hydrochloride]

>  <recordedValue>
-0.82

$$$$
>  <molecule>
O=C(O)CNC(=O)c1c(O)cc(-c2cccc(C(F)(F)F)c2)c2ncnn12 [Example 110, acetic acid hydrochloride]

>  <recordedValue>
-0.82

$$$$
>  <molecule>
O=C(O)CNC(=O)c1c(O)cc(-c2ccc(Cl)c(F)c2)n2ncnc12 [Example 78, acetic acid hydrochloride]

>  <recordedValue>
-0.82

$$$$

* * *

IC50 by entry:
Target: human PHD2 (Homo sapiens, UniProt Q9GZT9)
Construct: made in house; host or cells: Sf9 insect cells (baculovirus, pVL1393 vector)
Experiment: Measurement of human PHD inhibitory activity (TR-FRET, hydroxylation of HIF-1α partial peptide)
Assay type: biochemical
Details: human PHD2 enzyme 1 nM, 25° C. 30 min, values consisting solely of numbers; read-out: IC50 (μM) in vitro, human PHD inhibitory activity
Description: Human PHD2 was expressed in insect cell (Sf9 cell). […] The vector and baculovirus were cotransfected into Sf9, and human PHD2 expression baculovirus was isolated in Sf9. By using the virus, human PHD2-expressed cell was prepared. […] As for human PHD2 enzyme activity, hydroxylation of proline residue contained in the 19 residues of the partial peptide based on the sequence of HIF-1α as a substrate was measured by TR-FRET (Time-Resolved Fluorescence Resonance Energy Transfer) method. […]
Structures can show the parent of a compound that is named as a salt.

>  <molecule>
C[C@H](NC(=O)c1c(O)cc(-c2cc(F)cc(F)c2)n2ncnc12)C(=O)O [Example 67, hydrochloride]

>  <IC50 (µM)>
0.9

$$$$
>  <molecule>
Cl.O=C(O)CNC(=O)c1c(O)cc(CC2CCCCC2)c2ncnn12 [Example 91, acetic acid hydrochloride]

>  <IC50 (µM)>
1.53

$$$$
>  <molecule>
O=C(O)CNC(=O)c1c(O)cc(-c2cc(Cl)cc(Cl)c2)c2ncnn12 [Example 89, acetic acid hydrochloride]

>  <IC50 (µM)>
0.12

$$$$
>  <molecule>
Cc1ccc(-c2cc(O)c(C(=O)NCC(=O)O)c3ncnn23)s1 [Example 72, acetic acid hydrochloride]

>  <IC50 (µM)>
0.4

$$$$
>  <molecule>
O=C(O)CNC(=O)c1c(O)cc(-c2ccc(F)c(F)c2)n2ncnc12 [Example 25, hydrochloride]

>  <IC50 (µM)>
0.25

$$$$
>  <molecule>
CCCCc1c(Cl)c(O)c(C(=O)NCC(=O)O)c2ncnn12 [Example 6, hydrochloride]

>  <IC50 (µM)>
0.87

$$$$
>  <molecule>
O=C(O)CNC(=O)c1c(O)cc(-c2cc(F)cc(C3CC3)c2)n2ncnc12 [Example 52, acetic acid hydrochloride]

>  <IC50 (µM)>
0.89

$$$$
